Tested on: Wild-type HIV-1
ASSAY INFO: A3G-mediated restriction of wild-type HIV-1; virus from 293T stably expressing A3G, TZM-bl readout
Format: cell-based
TEST CONDITIONS: Human immunodeficiency virus 1, HEK-293T, read-out: A3G-mediated Restriction by Compounds on Wild-type HIV-1 (% of HIV replication relative to DMSO treated Control)
Grouping rule (activity at 10 µM): group 1 (below 60%), group 2 (60% to below 70%), group 3 (70% or more)

Task: Assign a category based on measured activity at 10 µM for "COc1ccc(C(=O)Nc2ccc(Cl)c(Cl)c2)cc1NC(=O)CN(C)C" and give only the class name.
Result: group 2

Task: Exercise: read the entry "COC(=O)Nc1cc(C(=O)Nc2ccc(Cl)c(Cl)c2)ccc1OC" and state which class it falls under.
Result: group 1

Task: Sort "COCCOc1ccc(C(=O)Nc2ccc(Cl)c(Cl)c2)cc1NC(=O)CC1CC1" into one of the categories.
Result: group 3

Task: Any idea which band "CCOc1ccc(C(=O)Nc2ccc(Cl)c(Cl)c2)cc1NC(=O)C1CCC1" is in?
Result: group 3

Task: Quick check: band for COc1ccc(C(=O)Nc2ccc(Cl)c(Cl)c2)cc1NC(=O)C1CCCO1 (stereo not shown)
Result: group 3

Task: Category of "COc1ccc(C(=O)Nc2ccc(Cl)c(Cl)c2)cc1NS(=O)(=O)C(C)C" :
Result: group 1

Task: Please report the category associated with COc1ccc(C(=O)Nc2ccc(Cl)c(Cl)c2)cc1NC(=O)C1CC1C (stereo not shown) , nothing else.
Result: group 1

Task: Classify this compound: "CCOc1ccc(C(=O)Nc2ccc(Cl)c(Cl)c2)cc1NC(=O)CC1CC1"
Result: group 3

Task: # bin label for O=C(CCCCC1SC[C@@H]2NC(=O)N[C@H]12)NCCOCCOc1ccc(C(=O)Nc2ccc(Cl)c(Cl)c2)cc1NC(=O)CC1CC1 (stereo partly shown)
Result: group 2

====

Exercise: for every item that follows, state its recorded activity at 10 µM.
Tested on: Wild-type HIV-1
ASSAY INFO: A3G-mediated restriction of wild-type HIV-1; virus from 293T stably expressing A3G, TZM-bl readout
Format: cell-based
TEST CONDITIONS: Human immunodeficiency virus 1, HEK-293T, read-out: A3G-mediated Restriction by Compounds on Wild-type HIV-1 (% of HIV replication relative to DMSO treated Control)
Quick reminder: number only, in %, skip the unit.

For "COc1ccc(C(=O)Nc2ccc(Cl)c(Cl)c2)cc1NC(=O)C(C)C" the compound record lists activity at 10 µM as 57

Entry under test: "COc1ccc(C(=O)Nc2ccc(Cl)c(Cl)c2)cc1NS(C)(=O)=O" . Its activity at 10 µM was 79

Briefly, activity at 10 µM measured for "COc1ccc(C(=O)Nc2ccc(F)cc2)cc1NC(=O)C(C)C" : 72

Given item "COc1ccc(C(=O)Nc2ccc(Cl)c(Cl)c2)cc1NC(=O)CC1CC1" , the value recorded as its activity at 10 µM is 72

Field activity at 10 µM (entry "COCC(=O)Nc1cc(C(=O)Nc2ccc(Cl)c(Cl)c2)ccc1OC" ) reads 62

activity at 10 µM for "COc1ccc(C(=O)Nc2ccc(Cl)c(Cl)c2)cc1NC(=O)C(C)(C)C" is 54

Just so you know, measured activity at 10 µM for "COCCOc1ccc(C(=O)Nc2ccc(Cl)c(Cl)c2)cc1NC(=O)C1CCC1" came out at 95

# activity at 10 µM (compound: "COc1ccc(C(=O)Nc2ccc(Cl)c(Cl)c2)cc1NC(=O)C1CCC1" ) is 60

response.value for "COCCC(=O)Nc1cc(C(=O)Nc2ccc(Cl)c(Cl)c2)ccc1OC" (field: activity at 10 µM) = 64
